Attribution: patent US20120004244A1

EXPERIMENTAL_TARGET: Recombinant human LTC4 synthase (Homo sapiens, UniProt Q16873)
Sequence (Q16873 whole entry): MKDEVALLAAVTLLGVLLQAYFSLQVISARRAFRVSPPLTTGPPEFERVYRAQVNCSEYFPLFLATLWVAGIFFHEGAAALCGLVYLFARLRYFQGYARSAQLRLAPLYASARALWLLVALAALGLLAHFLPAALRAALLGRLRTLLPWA
TEST_PROTOCOL: LTC4 synthase in vitro assay (LTA4 to LTC4, HTRF detection)
MEASURED_PROPERTY: log10(IC50) (log10 of the value in nM)
Recorded IC50 (log10, nM)

Provide the documented log10(IC50) with Recombinant human LTC4 synthase (Homo sapiens, UniProt Q16873) as the system for O=C(c1ccc(NS(=O)(=O)c2ccc(Cl)cc2)c(C(=O)O)c1)c1ccc(N(CC2CC2)c2ccc(Cl)cc2)cn1 [4:6] 1.23

Provide the documented log10(IC50) with Recombinant human LTC4 synthase (Homo sapiens, UniProt Q16873) as the system for O=C(c1ccc(Oc2ccccc2Oc2ccc(F)cc2F)c(C(=O)O)c1)c1ccc(N(CC2CC2)c2ccc(Cl)cc2)cn1 [1:42] 1.72

Provide the documented log10(IC50) with Recombinant human LTC4 synthase (Homo sapiens, UniProt Q16873) as the system for O=C(Nc1ccc(C(=O)c2ccc(N(CC3CC3)c3ccc(Cl)cc3)cn2)cc1C(=O)O)c1ccc2c(c1)OCCO2 [3:25] 1.04

Provide the documented log10(IC50) with Recombinant human LTC4 synthase (Homo sapiens, UniProt Q16873) as the system for O=C(c1ccc(Oc2ccccc2CCCO)c(C(=O)O)c1)c1ccc(N(CC2CC2)c2ccc(Cl)cc2)cn1 [1:36] 2.06

###

EXPERIMENTAL_TARGET: Recombinant human LTC4 synthase (Homo sapiens)
TEST_PROTOCOL: LTC4 synthase in vitro assay (LTA4 to LTC4, HTRF detection)
MEASURED_PROPERTY: pIC50
Recall that pIC50 is obtained by taking minus log10 of the concentration measured in molar.

Check out these entries, answers already filled in.
{"columns": ["LINE_NOTATION", "RESULT_VALUE"],
 "data": [
  ["CN(c1ccc(Cl)cc1)c1ccc(C(=O)c2ccc(C(=O)C3CCCCC3)c(C(=O)O)c2)nc1", 6.61],
  ["CN(c1ccc(Cl)cc1)c1ccc(C(=O)c2ccc(-c3ccccc3OC(F)(F)F)c(C(=O)O)c2)nc1", 6.66],
  ["CCCCOc1ccc(S(=O)(=O)Nc2ccc(C(=O)c3ccc(N(C)c4ccc(Cl)cc4)cn3)cc2C(=O)O)cc1", 7.64],
  ["COc1cc(F)c(C(=O)Nc2ccc(C(=O)c3ccc(N(C)c4ccc(Cl)cc4)cn3)cc2C(=O)O)c(F)c1", 7.14],
  ["COc1ccc(C(=O)Nc2ccc(C(=O)c3ccc(N(CC4CC4)c4ccc(Cl)cc4)cn3)cc2C(=O)O)cc1", 7.51],
  ["O=C(c1ccc(Oc2ccccc2F)c(C(=O)O)c1)c1ccc(N(CC2CC2)c2ccc(Cl)cc2)cn1", 7.10]
]}

Turning to the following molecule.
Query (molecule): O=C(c1ccc(-n2nc(C(F)(F)F)cc2-c2ccccc2)c(C(=O)O)c1)c1ccc(N(CC2CC2)c2ccc(Cl)cc2)cn1 ; field requested: pIC50 6.53

###

EXPERIMENTAL_TARGET: Recombinant human LTC4 synthase (Homo sapiens)
TEST_PROTOCOL: LTC4 synthase in vitro assay (LTA4 to LTC4, HTRF detection)
MEASURED_PROPERTY: pIC50
Recall that pIC50 is obtained by taking minus log10 of the concentration measured in molar.

Check out these entries, answers already filled in.
{"columns": ["COMPOUND", "RESULT_VALUE"],
 "data": [
  ["COc1ccc(C(=O)Nc2ccc(C(=O)c3ccc(N(C)c4ccc(Cl)cc4)cn3)cc2C(=O)O)c(Cl)c1OC", 7.41],
  ["CN(c1ccc(C(C)(C)C)cc1)c1ccc(C(=O)c2ccc(Oc3ccccc3)c(C(=O)O)c2)nc1", 5.88],
  ["COc1ccc(C(=O)Nc2ccc(C(=O)c3ccc(N(C)c4ccc(Cl)cc4)cn3)cc2C(=O)O)cc1OC", 7.43]
]}

Query (compound): CC(C)(C)c1ccc(N(CC2CC2)c2ccc(C(=O)c3ccc(Oc4ccccc4)c(C(=O)O)c3)nc2)cc1 ; field requested: pIC50 6.26

Query (compound): COc1cccc(Oc2ccc(C(=O)c3ccc(N(CC4CC4)c4ccc(Cl)cc4)cn3)cc2C(=O)O)c1 ; field requested: pIC50 6.80

Query (compound): CON=C(c1ccc(Oc2ccccc2)c(C(=O)O)c1)c1ccc(N(CC2CC2)c2ccc(Cl)cc2)cn1 (mixture of isomers) ; field requested: pIC50 6.62

Query (compound): Cc1ccc(N(C)c2ccc(C(=O)c3ccc(C(=O)c4ccccc4)c(C(=O)O)c3)nc2)cc1 ; field requested: pIC50 6.60
